The entries below are paired with their reported pKd.
- Test System: T1, SARS-CoV2 Spike ecto foldon Trimer expressed with a C-terminal myc-myc-hexahistidine (SARS-CoV-2, UniProt P0DTC2 14-1213)
- T1 construct: extracellular domain
- Method Description: SPR Biacore, mAb captured by anti-hFc, 37C
When answering, recall that pKd equals minus log10 of the concentration in mol/L, and write that number alone.

mAb15164 (antibody, V domains shown) VH: EVQLVESGGGLVQPGGSLRLSCAASGFAVSSNYMTWVRQAPGKGLEWVATIYSGDSTYYADSVKGRFTISRHNSKNTLSLQMNSLRADDTAIYYCARLSGVLSGTYNGAFDIWGQGTMVTVSS VL: QSALTQPASVSGSPGQSITISCTGTSSDFGNYNIVSWYQQHPGQAPKVMIYEGNKRPSGVSNRFSGSKSGHTASLTISGLQAEDEADYYCSSYAGSSTWVFGGGTKLTVLG; 10.11
mAb14294 (antibody, V domains shown) VH: EVQLVESGGGLVQPGGSLRLSCAASGFTFSNHWMDWVRQAPGKGLVWVSRINSDGSSTDYADSVRGRFTMSRDNAKNTLYLQMSSLRAEDTAVYYCAREGMIFGAVIIPGWYFDLWGRGALVTVSS VL: EIVLTQSPGTLSLSPGERATLSCRASQSVSSSQLAWYQQKPGQAPRLLIYGASSRATGIPDRFSGSGSGTDFTLTISRLEPEDFAVYYCQQYDSFGQGTKLEIKR; 10.48

Next binder, pKd to be filled in.
Which pKd value belongs to mAb15170 (antibody, V domains shown) VH: EVQLVESGGGLVQPGGSLRLSCAATGITVSSNYMSWVRQAPGKGLEWVSLIYSGGSTFYADSVKGRFTISRHNSKNTLYLQMSSLRAEDTAVYYCARDLVDFGMDVWGQGTTVTVSS VL: DIQLTQSPSSLSASVGDRVTITCRASQGISNYLAWYQQKPGKAPKLLIYAASTLQSGVPSRFSGSGSGTDFTLTISSLQPEDFGTYYCQQLNSDSPTFGQGTKVEIKR ?
10.93
